test: recombinant barcode read abundance after kanamycin selection (control-corrected) (log10(CPM+1)); higher = more efficient recombination; sequences stand for … in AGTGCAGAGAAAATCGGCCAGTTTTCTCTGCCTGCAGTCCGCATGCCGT…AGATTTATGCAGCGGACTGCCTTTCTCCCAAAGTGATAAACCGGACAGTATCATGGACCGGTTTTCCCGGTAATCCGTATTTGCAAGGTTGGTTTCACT; site = the 11-nt target;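 note: IS621 recombinase and bridge RNA in Escherichia coli cells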
observation-type: recombinant barcode read abundance (log10)

>>> measured_result("TGGACCACTTGGGTTCTAACCTGTTGCCT (site TGGACCACTAG)")
0.765
>>> measured_result("GACTTGTCTTGGGTTCTAACCTGTTGCGG (site GACTTGTCTCC)")
1.59
>>> measured_result("AGCGCTTCTTGGGTTCTAACCTGTTGCCT (site ACCGCTTCTAG)")
0.423
>>> measured_result("CATGCCTCTTGGGTTCTAACCTGTTGCCG (site CATGCCTCTCG)")
2.17
>>> measured_result("GAGCTGACTTGGGTTCTAACCTGTTGCCT (site GAGCAGACTAG)")
0.182
>>> measured_result("ACCCCTCCTTGGGTTCTAACCTGTTGCCA (site ACGCCTCCTTG)")
0.228
>>> measured_result("GCCGCGCCTTGGGTTCTAACCTGTTGCAG (site GCCTCGCCTCT)")
0.13
>>> measured_result("CACTTAGCTTGGGTTCTAACCTGTTGCGG (site CACTCACCTCC)")
0.0176
>>> measured_result("GTGTCTCCTTGGGTTCTAACCTGTTGCCT (site ATGTCTCCTAG)")
0.233
>>> measured_result("AAGCCAACTTGGGTTCTAACCTGTTGCCT (site AAGCTAACTAG)")
0.172
>>> measured_result("GCACATACTTGGGTTCTAACCTGTTGCCT (site GCACATTCTAG)")
0
>>> measured_result("AACTTTCCTTGGGTTCTAACCTGTTGCAT (site AACTATCCTAT)")
0.0732
>>> measured_result("TCCCTATCTTGGGTTCTAACCTGTTGCCT (site TTCCTATCTAG)")
0.0651
>>> measured_result("GCCCGGGCTTGGGTTCTAACCTGTTGCCG (site GCCTGGGCTCG)")
0.0679
>>> measured_result("GTCAAACCTTGGGTTCTAACCTGTTGCTT (site GACAAACCTAG)")
0.274
>>> measured_result("GCCCATCCTTGGGTTCTAACCTGTTGCTA (site TAGTGAGCTCG)")
0.222
>>> measured_result("ACTTCACCTTGGGTTCTAACCTGTTGCCT (site ACTTCACCTAG)")
1.02
>>> measured_result("CCTACATCTTGGGTTCTAACCTGTTGCCT (site CCTACATCTAG)")
0.123
>>> measured_result("GAGCGCTCTTGGGTTCTAACCTGTTGCTT (site GAGCGCTCTTA)")
0.269
>>> measured_result("CCACGGTCTTGGGTTCTAACCTGTTGCCT (site CCACAGTCTAG)")
0.161
>>> measured_result("GGGCACACTTGGGTTCTAACCTGTTGCAC (site CTTGCATCTAG)")
0.244
>>> measured_result("GACGTGTCTTGGGTTCTAACCTGTTGCGT (site GACGTGTCTAC)")
2.47
>>> measured_result("TAACGTTCTTGGGTTCTAACCTGTTGCCT (site TAACGTTCTAG)")
0.385
>>> measured_result("AGCTCACCTTGGGTTCTAACCTGTTGCCT (site AGCTCATCTAG)")
0.147
>>> measured_result("TATGGGGCTTGGGTTCTAACCTGTTGCCT (site TATGAGGCTAG)")
0.145
>>> measured_result("CAATCTGCTTGGGTTCTAACCTGTTGCCT (site CACTCTGCTAG)")
0.0111
>>> measured_result("CAGCCGTCTTGGGTTCTAACCTGTTGCGG (site CAGCCGTCTCC)")
1.09
>>> measured_result("TCAAGACCTTGGGTTCTAACCTGTTGCCT (site TCAAGACCTAG)")
0.617
>>> measured_result("TGTCGGACTTGGGTTCTAACCTGTTGCAC (site TGTCGGACTAT)")
0.741
>>> measured_result("GAACTTGCTTGGGTTCTAACCTGTTGCCT (site GCCCTTGCTAG)")
0.176
>>> measured_result("TAGTTGCCTTGGGTTCTAACCTGTTGCCT (site TAGTTGCCTAG)")
0.565
>>> measured_result("GTCAATCCTTGGGTTCTAACCTGTTGCTG (site GTCAATCCTCA)")
1.49
>>> measured_result("GGTTATCCTTGGGTTCTAACCTGTTGCGG (site GGTTATCCTCC)")
1.17
>>> measured_result("TTGAACCCTTGGGTTCTAACCTGTTGCGT (site ATGAACCCTAC)")
0.303
>>> measured_result("CTCTTCGCTTGGGTTCTAACCTGTTGCCT (site CTCTTCGCTAG)")
0.314
>>> measured_result("ACTTGCCCTTGGGTTCTAACCTGTTGCCT (site AATTGCCCTAG)")
0.0465
>>> measured_result("CGAACTACTTGGGTTCTAACCTGTTGCCT (site CGAACTACTAA)")
0.0404
>>> measured_result("ACGGCTCCTTGGGTTCTAACCTGTTGCTG (site ACGTCTCCTCA)")
0.123
>>> measured_result("TCTCAGGCTTGGGTTCTAACCTGTTGCAG (site TCTCAGGCTCT)")
0.445
>>> measured_result("CTCGCTACTTGGGTTCTAACCTGTTGCTT (site CTCGATACTAA)")
0.0927
>>> measured_result("CTCCGACCTTGGGTTCTAACCTGTTGCTT (site CTCCGTCCTAA)")
0.103
>>> measured_result("TTGCATTCTTGGGTTCTAACCTGTTGCTG (site AAAGGGGCTAG)")
0.147

Values compiled from the supplement of paper PMC11208160.
